# credit: PubChem BioAssay AID1159580

assayOverview: chemical genetic growth profiling, strain panel (AID 1159580);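 note: tested at 20 µM; growth read once vehicle control cultures reached saturation at 30 °C; lower values mean less growth of the strain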
runParameters: S. cerevisiae deletion strains, growth OD, locus YDR150W, strain NUM1
The whole screen tested about 5,500 compounds, of which about 2,000 (36%) were called active. Not shown: some 18% with an inconclusive outcome. Cut-off read from the data, not from the text of the source: active = normalized growth mostly below about 0.91 (no sharp cut-off); inconclusive = no clear call, values can overlap the other calls; inactive = mostly above about 0.92. Some of the results follow.
Lab note: assign the record to one of active, inactive

Query string: Which outcome did this test record for the compound `CC(C)c1ccc2c(c1O)CC[C@H]1C3=C(CC[C@]21C)C(=O)OC3` ?
Result string: inactive

Query string: Which outcome did this test record for the compound `NCC(=O)CCC(=O)O` ?
Result string: inactive

Query string: Which outcome did this test record for the compound O=C(NCC1CCCCN1)c1cc(OCC(F)(F)F)ccc1OCC(F)(F)F (stereo unspecified) ?
Result string: inactive

Query string: Which outcome did this test record for the compound `ClC(Cl)=C(c1ccc(Cl)cc1)c1ccc(Cl)cc1` ?
Result string: inactive

Query string: Which outcome did this test record for the compound `CSc1ccc(C(=O)O)s1` ?
Result string: inactive

Query string: Which outcome did this test record for the compound `O=C(N/N=C\c1ccccc1Cl)c1cccnc1` ?
Result string: inactive

Query string: Which outcome did this test record for the compound `NCCc1ccc(O)cc1` ?
Result string: inactive

Query string: Which outcome did this test record for the compound CN1CCOC(c2ccccc2)c2ccccc2C1 (stereo unspecified) ?
Result string: inactive

Query string: Which outcome did this test record for the compound CC(=O)[C@H]1CCC2C3CC=C4C[C@@H](O)CC[C@]4(C)C3CC[C@@]21C (stereo partly specified) ?
Result string: inactive

Query string: Which outcome did this test record for the compound `Clc1cccc(-c2csc(Nc3cccnc3)n2)c1` ?
Result string: inactive

Query string: Which outcome did this test record for the compound `O=C1CC[C@]23C=CC(=O)NCCCCNCCCNC(=O)/C=C/c4ccc(c2c4)O[C@@H]3C1` ?
Result string: inactive

Query string: Which outcome did this test record for the compound `O=C1CCCc2c1nc(-c1ccccc1)n2O` ?
Result string: inactive

Query string: Which outcome did this test record for the compound CCCCOc1cc(CC2CNC(=O)N2)ccc1OC (stereo unspecified) ?
Result string: inactive

Query string: Which outcome did this test record for the compound `CC(C)[C@]12O[C@H]1[C@@H]1O[C@@]13[C@@]1(C)CCC4=C(COC4=O)[C@@H]1C[C@@H]1O[C@@]13C2=O` ?
Result string: inactive

Query string: Which outcome did this test record for the compound `CCCCCCCCCCCCCCCC[n+]1ccccc1` ?
Result string: active

Query string: Which outcome did this test record for the compound `CC(C)(C)C(=O)N1CCN(c2ncccc2C(F)(F)F)CC1` ?
Result string: inactive

Query string: Which outcome did this test record for the compound `O=C(/C=C/c1ccccc1)c1ccc(O)cc1` ?
Result string: active

Query string: Which outcome did this test record for the compound `O=C(Nc1ccccc1SCc1cccc(C(F)(F)F)c1)c1c(F)cccc1Cl` ?
Result string: inactive

Query string: Which outcome did this test record for the compound `CC1=NCCc2c1[nH]c1cc(O)ccc21` ?
Result string: inactive

Query string: Which outcome did this test record for the compound `NCCc1cccc(O)c1` ?
Result string: inactive

Query string: Which outcome did this test record for the compound `CN1CCc2ccccc2Cc2[nH]c3ccccc3c2CC1` ?
Result string: inactive

Query string: Which outcome did this test record for the compound `CN(N=O)C(=O)N[C@@H]1[C@@H](O)[C@H](O)[C@@H](CO)O[C@@H]1O` ?
Result string: inactive

Query string: Which outcome did this test record for the compound `Cc1c(C)c(C)c(CO)c(C)c1C` ?
Result string: inactive

Query string: Which outcome did this test record for the compound `COc1ccc(-c2cc(=O)c3ccccc3o2)cc1OC` ?
Result string: inactive

Query string: Which outcome did this test record for the compound `Nc1ccn([C@H]2CC[C@@H](CO)O2)c(=O)n1` ?
Result string: inactive

Query string: Which outcome did this test record for the compound N#CC1COc2ccccc2O1 (stereo unspecified) ?
Result string: inactive

Query string: Which outcome did this test record for the compound CSc1ccc2c(c1)C(N1CCN(C)CC1)Cc1ccccc1S2 (stereo unspecified) ?
Result string: inactive

Query string: Which outcome did this test record for the compound `Clc1ccc(-c2csc(-c3ccno3)n2)s1` ?
Result string: inactive

Query string: Which outcome did this test record for the compound `CCOC(=O)CSc1nnc(-c2cc(C(C)(C)C)nn2Cc2cccc(C)c2)n1C1CCCCC1` ?
Result string: inactive

Query string: Which outcome did this test record for the compound `NCCc1ccc(O)c(O)c1` ?
Result string: inactive

Query string: Which outcome did this test record for the compound `CNCCc1c[nH]c2ccc(O)cc12` ?
Result string: inactive

Query string: Which outcome did this test record for the compound CC(N)Cc1ccc(O)cc1 (stereo unspecified) ?
Result string: inactive

Query string: Which outcome did this test record for the compound `O=C1c2c(O)ccc(O)c2C(=O)c2c(NCCNCCO)ccc(NCCNCCO)c21` ?
Result string: inactive

Query string: Which outcome did this test record for the compound `Cc1cc(C(F)(F)F)c(C#N)c(=O)[nH]1` ?
Result string: inactive

Query string: Which outcome did this test record for the compound OC1C(O)C(O)C(O)C(O)C1O (stereo unspecified) ?
Result string: inactive

Query string: Which outcome did this test record for the compound `CCOC(=O)c1c(SC)[nH]c2c(C(F)(F)F)cccc2c1=O` ?
Result string: inactive
